- Tested on: NCI-H23 lung
- measurement protocol: NCI-60 one-dose screen, 48 h (100 = growth as untreated, 0 = no growth, -100 = all killed)
- assay conditions: 10 µM unless noted
The panel holds about 83,000 compounds, 20% with a hit somewhere; the sample as a whole holds those more often.
measure name: growth (%)
Numbers only; they are read as %.

[ask] Short answer please: growth, NCI-H23 lung, entry CCOC(=O)C1=C(N)Oc2c(sc3c(C)cccc23)C1c1ccc(Cl)cc1 (configuration not stated)
[reply] 28.2

[ask] Short answer please: growth, NCI-H23 lung, entry `COc1cc(C(=O)/C=C/c2c(Cl)nc3sccn23)cc(OC)c1OC`
[reply] 91.8

[ask] Short answer please: growth, NCI-H23 lung, entry `CCOC(=O)c1c2c(n(-c3ccc(C#N)cc3)c1-c1ccccc1)C=CCC2`
[reply] 89.3

[ask] Short answer please: growth, NCI-H23 lung, entry `COc1ccc(OC)c(/C=C/C(=O)N/N=C/c2ccccc2)c1`
[reply] 65.1

[ask] Short answer please: growth, NCI-H23 lung, entry `O=C1c2cccc3cccc(c23)C(=O)N1Nc1nc(N2CCOCC2)nc(N2CCN(c3ccccc3)CC2)n1`
[reply] 64

[ask] Short answer please: growth, NCI-H23 lung, entry CC1Cc2c(ncn3c(-c4ccc(F)cc4)nnc23)N(C)c2ccccc21 (configuration not stated)
[reply] 73.4

[ask] Short answer please: growth, NCI-H23 lung, entry `O=c1ccc(N=Nc2ccc([N+](=O)[O-])cc2)ccc1O`
[reply] 2.17

[ask] Short answer please: growth, NCI-H23 lung, entry `CCc1ccccc1-n1c(N)c(C#N)c(-c2ccc(Cl)cc2)c(C#N)c1=O`
[reply] 107

[ask] Short answer please: growth, NCI-H23 lung, entry `CC(=O)CC[C@H]1C(=O)N[C@@H](C(C)C)C(=O)N[C@@H](Cc2cc(O)cc(F)c2)C(=O)N2CCC[C@H](N2)C(=O)O[C@H](/C(C)=C/C=C/C(=O)OC(C)(C)C)C/C=C/C=C/[C@H](O)[C@H](C)[C@H]1O`
[reply] 42.2

[ask] Short answer please: growth, NCI-H23 lung, entry `O=C(N/N=C/c1c(Cl)cccc1Cl)c1ccc(C(F)(F)F)nc1Nc1cccc(C(F)(F)F)c1`
[reply] -10.6

[ask] Short answer please: growth, NCI-H23 lung, entry `O=C(CCN1C(=O)/C(=C/c2ccc(O)cc2)SC1=S)Nc1ccc(Cl)cc1`
[reply] 91.3

[ask] Short answer please: growth, NCI-H23 lung, entry COc1ccc2cc(C(C)C(=O)Nc3ccc(-c4n[nH]c(=S)n4C4CCCCC4)cc3)ccc2c1 (configuration not stated)
[reply] 90.2

====

- Test system: HT29 colon
- measurement protocol: NCI-60 one-dose screen, 48 h
- assay conditions: 10 µM unless noted
The panel holds about 83,000 compounds, 20% with a hit somewhere; the sample as a whole holds those more often. Active and inactive are the calls of the source. The calls were made as follows: active = growth percent below 10; inactive = the rest.
Mark one answer only. Choices: active, inactive

[ask] Can you look up the reported call for `COc1ccc(/C=C/c2c(C(=O)/C=C/c3ccc(C(F)(F)F)cc3)c(C)nc3ccccc23)cc1` for me?
[reply] active

[ask] Can you look up the reported call for Cc1cc(O)c(C2=NN(c3ccc(S(N)(=O)=O)cc3)C(c3ccccc3O)C2)cc1Cl (stereo not drawn) for me?
[reply] active

[ask] Can you look up the reported call for CCN1C(=O)N(CC)C2Nn3c(s/c(=C4\C(=O)Nc5ccccc54)c3=O)=NC21 (stereo not drawn) for me?
[reply] inactive
